// Relative activity for PPAR transactivation, γ lookup, one value per entry
- Target: PPARγ (Homo sapiens)
- Construct: Receptor expression plasmid (GAL4-hPPARα, LBD GAL4-hPPARγ LBD, GAL4-hPPARδ LBD); expressed in transfected cells; host or cells: CV-1 cells
- Sequence (P37231 238-503 limits assumed): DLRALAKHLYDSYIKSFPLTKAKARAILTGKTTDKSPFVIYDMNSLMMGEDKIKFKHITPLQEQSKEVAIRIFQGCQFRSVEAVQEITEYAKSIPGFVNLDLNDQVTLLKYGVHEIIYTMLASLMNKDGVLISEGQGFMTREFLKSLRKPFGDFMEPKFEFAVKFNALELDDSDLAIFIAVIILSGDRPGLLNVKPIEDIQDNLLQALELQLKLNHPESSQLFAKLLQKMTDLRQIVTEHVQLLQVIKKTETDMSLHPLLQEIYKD
- Procedure Summary: PPARγ transactivation activity (GAL4-hPPARγ LBD luciferase reporter in CV-1 cells)
- Format: cell-based
- Condition Details: compounds at 10^-7 M

Reference set, count: 4
{"columns": ["Compound", "Target", "Meas Value"],
 "data": [
  ["Cc1cc2c(CCc3sc(-c4ccc(C(F)(F)F)cc4)nc3C(C)C)noc2cc1OCC(=O)O [Example 5]", "PPARγ (Homo sapiens)", "0 % of control"],
  ["Cc1cc2c(CCc3sc(-c4ccc(C(F)(F)F)cc4)nc3C(C)C)noc2cc1OC(C)(C)C(=O)OCCN1CCCCC1.Cl [Example 10]", "PPARγ (Homo sapiens)", "0 % of control"],
  ["Cc1cc2c(CCc3sc(-c4ccc(C(F)(F)F)cc4)nc3C(C)C)noc2cc1NCC(=O)O [Example 8]", "PPARγ (Homo sapiens)", "0 % of control"],
  ["Cc1cc2c(CCc3sc(-c4ccc(C(F)(F)F)cc4)nc3C(C)C)noc2cc1SCC(=O)O [Example 7]", "PPARγ (Homo sapiens)", "0 % of control"]
]}

Read the next record carefully.
For Cc1cc2c(CCc3nc(-c4ccc(Cl)cc4Cl)oc3C(C)C)noc2cc1OCC(=O)O [Example 9] the compound record lists Relative activity for PPAR transactivation, γ as 2 % of control
